Biological target: recombinant human Aggrecanase-2 Agg2-Phe628 (Homo sapiens)
Assay: Aggrecanase 2 in vitro enzyme assay (Agg-2 FRET, quenched fluorescent peptide substrate)
Assay type: biochemical
Set-up: purified recombinant human Aggrecanase-2 Agg2-Phe628 (MW=41,737); This is a truncated form of full-length human aggrecanase-2; made in house; host or cells: CHO cells
Conditions: concentration not given
For each record, write down the corresponding Agg-2 FRET Median PCT INHIB.
Numbers only, in %.

For orientation, consider the following solved cases.
>>> df
                                   compound                            assayed_target  reported
0  O=C(NC(c1ccccn1)c1cc(Cl)c2cccnc2c1O)OCc1ccccc1 (centres unmarked) [Example 183]  recombinant human Aggrecanase-2 Agg2-Phe628 (Homo sapiens)        50
1  O=C(COc1ccccc1)NC(c1ccc(C#Cc2ccccc2)cc1)c1cc(Cl)c2cccnc2c1O (centres unmarked) [Example 141]  recombinant human Aggrecanase-2 Agg2-Phe628 (Homo sapiens)        50
2  O=C(NC(c1ccco1)c1cc(Cl)c2cccnc2c1O)OCc1ccccc1 (centres unmarked)  recombinant human Aggrecanase-2 Agg2-Phe628 (Homo sapiens)        33
3  O=C(COc1ccccc1)NC(c1ccccc1)c1cc(Cl)c2ccccc2c1O (centres unmarked)  recombinant human Aggrecanase-2 Agg2-Phe628 (Homo sapiens)        31

Consider now this further compound.
Prompt line: Given the entry CC(C)(C)c1ccc(OCC(=O)NC(c2cccc(F)c2)c2cc(Cl)c3cccnc3c2O)cc1 (centres unmarked) , report its measured Agg-2 FRET Median PCT INHIB.
Response line: 43

* * *

Target: recombinant human Aggrecanase-2 Agg2-Phe628 (Homo sapiens, UniProt Q9UNA0)
Sequence (Q9UNA0 262-628 limits assumed): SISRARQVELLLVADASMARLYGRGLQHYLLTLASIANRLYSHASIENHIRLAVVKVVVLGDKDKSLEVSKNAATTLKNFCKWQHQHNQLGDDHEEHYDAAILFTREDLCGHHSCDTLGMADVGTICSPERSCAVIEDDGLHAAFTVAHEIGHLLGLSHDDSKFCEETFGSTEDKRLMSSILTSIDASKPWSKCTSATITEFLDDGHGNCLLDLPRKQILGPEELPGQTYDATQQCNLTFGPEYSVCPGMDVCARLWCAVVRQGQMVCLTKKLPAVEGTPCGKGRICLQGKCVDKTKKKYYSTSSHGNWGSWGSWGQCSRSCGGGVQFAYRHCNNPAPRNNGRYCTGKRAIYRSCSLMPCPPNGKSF
Assay: Aggrecanase 2 in vitro enzyme assay (Agg-2 FRET, quenched fluorescent peptide substrate)
Assay type: biochemical
Parameters: purified recombinant human Aggrecanase-2 Agg2-Phe628 (MW=41,737); This is a truncated form of full-length human aggrecanase-2; made in house; host or cells: CHO cells
Details: IC50; read-out: Agg-2 IC50 (μM) or % Inhibition
For each record, write down the corresponding IC50.
Give bare numbers, in µM.

List IC50 for every entry below, keeping the order given.
1. O=C(COc1ccccc1)NC(Cc1cc(Cl)c2cccnc2c1O)c1ccc2c(c1)OCO2 (stereo not drawn)
2. O=C(NC(Cc1cc(Cl)c2cccnc2c1O)c1cccc(CN2CCCC2)c1)c1ccc(-c2ccccc2)cc1 (stereo not drawn) [drawing 58]
3. O=C(COc1ccccc1)NC(Cc1cc(Cl)c2cccnc2c1O)c1cccc(CN2CCCC2)c1 (stereo not drawn)

Response line:
1. 9.6
2. 3.4
3. 20
